All values here come from patent US20120071419A1.

- TARGET_OF_ASSAY: T1, EGFR (Epidermal Growth Factor Receptor) (human, UniProt P00533 26-444, limits assumed)
- T1 construct: also called EGF receptor
- TEST_DETAILS: phage ELISA, wells coated with 4 ug/ml EGFR, anti-M13-HRP
METRIC: OD at 650 nm (OD)
Kindly answer with a numeric value in OD, unit omitted.

Sample answers from the record:
# BINDER, OD at 650 nm, OD
rows = [
    ("clone 6 of the 1OZJ scaffold (designed binder) MSSILPFTPPIVKRLLGWKKGEQNGQEEKWCEKAVKSLVKKLKSTGQLDELEKAITTQNVNTKCITIPRSLDGRLQVSHRKGLPHVIYCRLWRWPDLHSHHELRAMGLCSFAFNMKKLEVCVNPYHYQRVETPVLPPVLVPRHT", 1.83),
    ("clone 7 of the 1OZJ scaffold (designed binder) MSSILPFTPPIVKRLLGWKKGEQNGQEEKWCEKAVKSLVKKLKLTGQLDELEKAITTQNVNTKCITIPRSLDGRLQVSHRKGLPHVIYCRLWRWPDLHSHHELRAMALCAFAFMMKKCEVCVNPYHYQRVETPVLPPVLVPRHT", 1.74),
]

Prompt line: Field request: OD at 650 nm | item: clone 43 of the 1OZJ scaffold (designed binder, domain: Smad3-MH1) MSSILPFTPPIVKRLLGWKKGEQNGQEEKWCEKAVKSLVKKLKRTGQLDELEKAITTQNVNTKCITIPRSLDGRLQVSHRKGLPHVIYCRLWRWPDLHSHHELRAMHLCNFAFGMKKAEVCVNPYHYQRVETPVLPPVLVPRHT
Response line: 0.919

Prompt line: Entry wild type 1OZJ scaffold (B chain of 1OZJ, crystal structure of Smad3-MH1) (other, human, UniProt P84022 1-144, looked up, domain: Smad3-MH1; 6; also called WT) MSSILPFTPPIVKRLLGWKKGEQNGQEEKWCEKAVKSLVKKLKKTGQLDELEKAITTQNVNTKCITIPRSLDGRLQVSHRKGLPHVIYCRLWRWPDLHSHHELRAMELCEFAFNMKKDEVCVNPYHYQRVETPVLPPVLVPRHT please
Response line: 0.086

Prompt line: Also check clone 8 of the 1OZJ scaffold (designed binder, domain: Smad3-MH1) MSSILPFTPPIVKRLLGWKKGEQNGQEEKWCEKAVKSLVKKLKGTGQLDELEKAITTQNVNTKCITIPRSLDGRLQVSHRKGLPHVIYCRLWRWPDLHSHHELRAMPLCNFAFTMKKPEVCVNPYHYQRVETPVLPPVLVPRHT
Response line: 1.18
